Please respond with reported pKi for every item in the list.
target: Human NPY Y1 receptors (Homo sapiens, UniProt P25929); construct: expressed in transfected cells; host or cells: CHO cells (membrane protein); assay: NPY Receptor Binding Assay; conditions: Procedure E compounds, rated A/B/C
pKi: −log10 of the molar value.

Exam item: // lookup pKi for COc1ccc2nc(NCCc3ccc(/N=C4\SC5Cc6ccccc6[C@@H]5N4C)cc3)sc2c1 (some centres unmarked)
Marked response: < 5.00

Exam item: Do the same for Brc1ccc(C2CCSC(Nc3ccc(CCNc4nc5ccccc5s4)cc3)=N2)cc1 (centres unmarked) please
Marked response: > 6.00

Exam item: Then this molecule: COc1ccc2nc(NCCc3ccc(/N=C4\SCCN4C)cc3)sc2c1
Marked response: < 5.00

Exam item: What would you report for CS(=O)(=O)c1ccc2nc(NCCc3ccc(/N=C4/N[C@H]5c6ccccc6CC5S4)cc3)sc2c1 (some centres unmarked) ?
Marked response: < 5.00

Exam item: And what about the molecule CC[C@@H]1CS/C(=N\c2ccc(CCNc3nc4ccc(S(C)(=O)=O)cc4s3)cc2)N1 ?
Marked response: 5.00 to 6.00

Exam item: Param item: Cc1ccc2nc(NCCc3ccc(/N=C4/NC(C)(C)CS4)cc3)sc2c1
Marked response: > 6.00

Exam item: And the next one, Cc1ccc2nc(NCCc3ccc(/N=C4/NC(c5ccccc5)CCS4)cc3)sc2c1 (centres unmarked) ?
Marked response: > 6.00

Exam item: Same question for Clc1ccc(C2CCSC(Nc3ccc(CCNc4nc5ccccc5s4)cc3)=N2)cc1 (centres unmarked) please.
Marked response: > 6.00

Exam item: Now this one: CC[C@@H]1CS/C(=N\c2ccc(CCNc3nc4ccc(Cl)cc4s3)cc2)N1
Marked response: > 6.00

Exam item: Moving on to Cc1ccc2nc(NCCc3ccc(/N=C4\SCCN4C)cc3)sc2c1
Marked response: < 5.00

Exam item: Also CC1(C)CS/C(=N/c2cccc(CCNc3nc4ccccc4s3)c2)N1 , if possible.
Marked response: < 5.00

Exam item: Record: c1ccc(CCC2CCSC(Nc3ccc(CCNc4nc5ccccc5s4)cc3)=N2)cc1 (centres unmarked)
Marked response: > 6.00

Exam item: // repeat for Cc1ccc2nc(NCCc3ccc(/N=C4/NCC(C)S4)cc3)sc2c1 (centres unmarked) and report
Marked response: < 5.00

Exam item: Also need Fc1ccc2nc(NCCc3ccc(/N=C4/NCCCS4)cc3)sc2c1 , thanks.
Marked response: > 6.00

Exam item: Here is the next molecule: CC1CCSC(Nc2ccc(CCNc3nc4ccccc4s3)cc2)=N1 (centres unmarked)
Marked response: > 6.00

Exam item: What do you get for COc1ccc2nc(NCCc3ccc(/N=C4/N[C@@H](c5ccccc5)CS4)cc3)sc2c1 ?
Marked response: < 5.00

Exam item: Continue with CCCC1CS/C(=N\c2ccc(CCNc3nc4ccccc4s3)cc2)N1 (centres unmarked)
Marked response: > 6.00

Exam item: Try this molecule next: C[C@@H]1N/C(=N/c2ccc(CCNc3nc4ccccc4s3)cc2)SC1c1ccccc1 (some centres unmarked)
Marked response: < 5.00

Exam item: Here is the next molecule: COc1ccc2nc(NCCc3ccc(/N=C4\SC[C@@H]5CCCN45)cc3)sc2c1
Marked response: < 5.00

Exam item: Check COc1cccc2sc(NCCc3ccc(/N=C4\SCCN4C)cc3)nc12 too.
Marked response: < 5.00

Exam item: Entry to check: CCCC1CS/C(=N\c2ccc(CCNc3nc4ccc(S(C)(=O)=O)cc4s3)cc2)N1 (centres unmarked)
Marked response: 5.00 to 6.00

Exam item: Next: Cc1ccc2nc(NCCc3ccc(/N=C4/NCC(c5ccccc5)S4)cc3)sc2c1 (centres unmarked)
Marked response: < 5.00

Exam item: One more molecule: CC1CN/C(=N\c2cccc(CCNc3nc4ccccc4s3)c2)S1 (centres unmarked)
Marked response: < 5.00

====

Target: Human NPY Y1 receptors (Homo sapiens, UniProt P25929)
Construct: expressed in transfected cells; host or cells: CHO cells (membrane protein)
Sequence (P25929 1-384): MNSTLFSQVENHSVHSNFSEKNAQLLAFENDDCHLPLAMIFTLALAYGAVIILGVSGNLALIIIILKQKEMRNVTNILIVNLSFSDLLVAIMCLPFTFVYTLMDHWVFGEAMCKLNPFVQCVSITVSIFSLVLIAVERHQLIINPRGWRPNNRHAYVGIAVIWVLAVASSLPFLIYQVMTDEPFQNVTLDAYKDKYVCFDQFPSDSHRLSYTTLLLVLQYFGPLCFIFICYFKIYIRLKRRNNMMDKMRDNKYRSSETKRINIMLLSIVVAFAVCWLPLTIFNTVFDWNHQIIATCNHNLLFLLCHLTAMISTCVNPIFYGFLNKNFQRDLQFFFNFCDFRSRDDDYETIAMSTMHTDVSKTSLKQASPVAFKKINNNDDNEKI
Assay: NPY Receptor Binding Assay
Details: Procedure E compounds, rated A/B/C
Readout Type: Ki

Exam item: So what does the record say about Ki for COc1cccc2sc(NCCc3ccc(/N=C4/NCCCS4)cc3)nc12 ?
Marked response: > 10 µM

Exam item: Same question, COc1ccc2nc(NCCc3ccc(/N=C4/NCC(C)S4)cc3)sc2c1 (centres unmarked) this time
Marked response: > 10 µM

Exam item: Next molecule: Cc1ccc2nc(NCCc3ccc(/N=C4\SC5Cc6ccccc6[C@@H]5N4C4CC4)cc3)sc2c1 (some centres unmarked)
Marked response: > 10 µM

Exam item: Next molecule: COc1cccc2sc(NCCc3ccc(/N=C4/NCC(C)S4)cc3)nc12 (centres unmarked)
Marked response: > 10 µM

Exam item: Try the molecule COc1ccc2nc(NCCc3ccc(/N=C4/NC(c5ccccc5)CCS4)cc3)sc2c1 (centres unmarked)
Marked response: < 1 µM

Exam item: Also check Cc1ccc2nc(NCCc3ccc(/N=C4\SC5CCC[C@H]5N4C)cc3)sc2c1 (some centres unmarked)
Marked response: > 10 µM

Exam item: Another molecule to check: Cc1ccc2nc(NCCc3ccc(/N=C4/N[C@@H](C)C(c5ccccc5)S4)cc3)sc2c1 (some centres unmarked)
Marked response: > 10 µM

Exam item: Next: CC[C@@H]1CS/C(=N\c2ccc(CCNc3nc4ccccc4s3)cc2)N1
Marked response: < 1 µM

Exam item: Cool, now O=[N+]([O-])c1ccc2nc(NCCc3ccc(N=C4NCCCS4)cc3)sc2c1
Marked response: > 10 µM

Exam item: Here is the next molecule: CCCC1CS/C(=N\c2ccc(CCNc3nc4ccc(C)cc4s3)cc2)N1 (centres unmarked)
Marked response: < 1 µM

Exam item: What do you get for COc1cccc2sc(NCCc3ccc(/N=C4/NC(c5ccccc5)CCS4)cc3)nc12 (centres unmarked) ?
Marked response: > 10 µM

Exam item: Try this molecule too: C[C@@H]1CS/C(=N\c2ccc(CCNc3nc4ccc(S(C)(=O)=O)cc4s3)cc2)N1
Marked response: 1 to 10 µM

Exam item: Try the molecule Cc1ccc2nc(NCCc3ccc(/N=C4/N[C@@H](C(C)C)CS4)cc3)sc2c1
Marked response: 1 to 10 µM

Exam item: Lookup C=C(C)CN1/C(=N/c2ccc(CCNc3nc4ccc(C)cc4s3)cc2)SC2Cc3ccccc3[C@@H]21 (some centres unmarked)
Marked response: > 10 µM

Exam item: // query: Clc1ccccc1C1CCSC(Nc2ccc(CCNc3nc4ccccc4s3)cc2)=N1 (centres unmarked)
Marked response: < 1 µM

Exam item: Similarly, Fc1ccc2nc(NCCc3ccc(/N=C4/NCC(c5ccccc5)S4)cc3)sc2c1 (centres unmarked) ?
Marked response: > 10 µM

Exam item: Likewise for COc1cccc2sc(NCCc3ccc(/N=C4\SC5Cc6ccccc6[C@@H]5N4C4CC4)cc3)nc12 (some centres unmarked) ?
Marked response: > 10 µM

Exam item: Repeat with c1ccc(/N=C2\N[C@H]3c4ccccc4CC3S2)c(CCNc2nc3ccccc3s2)c1 (some centres unmarked)
Marked response: > 10 µM

Exam item: Continue with c1ccc2sc(NCCc3ccc(N=C4NCCCS4)cc3)nc2c1
Marked response: < 1 µM

Exam item: COc1ccc2nc(NCCc3ccc(/N=C4/N[C@@H](Cc5ccccc5)CS4)cc3)sc2c1 ?
Marked response: 1 to 10 µM

Exam item: Please give the result for O=[N+]([O-])c1ccc2nc(NCCc3ccc(/N=C4/NC5(CCCC5)CS4)cc3)sc2c1 too.
Marked response: 1 to 10 µM

Exam item: Query Cc1ccc2nc(NCCc3ccc(/N=C4\SC5Cc6ccccc6[C@@H]5N4C)cc3)sc2c1 (some centres unmarked) next
Marked response: > 10 µM

Exam item: Ok, now Cc1ccc2nc(NCCc3ccc(N=C4NCCCS4)cc3)sc2c1
Marked response: < 1 µM

====

Field: Ki. Provide a value for each of the compounds that follow.
target: Human NPY Y1 receptors (Homo sapiens, UniProt P25929); construct: expressed in transfected cells; host or cells: CHO cells (membrane protein); assay: NPY Receptor Binding Assay; details: Procedure E compounds, rated A/B/C

Exam item: // Ki lookup, key: COc1ccc2nc(NCCc3ccc(/N=C4\SC5CCC[C@H]5N4C)cc3)sc2c1 (some centres unmarked)
Marked response: > 10 µM

Exam item: Please give the result for c1ccc2sc(NCCc3ccc(/N=C4/N[C@@H](Cc5c[nH]cn5)CS4)cc3)nc2c1 too.
Marked response: < 1 µM

Exam item: And c1cc(CCNc2nc3ccccc3s2)cc(/N=C2\N[C@H]3c4ccccc4CC3S2)c1 (some centres unmarked) ?
Marked response: > 10 µM

Exam item: Try this compound too: Fc1ccc2nc(NCCc3ccc(/N=C4/NC(c5ccccc5)CCS4)cc3)sc2c1 (centres unmarked)
Marked response: < 1 µM

Exam item: Clc1ccc2nc(NCCc3ccc(NC4=NCCCS4)cc3)sc2c1 , same question.
Marked response: < 1 µM

Exam item: Please answer likewise for CC1CN/C(=N/c2ccc(CCNc3nc4ccc(Cl)cc4s3)cc2)S1 (centres unmarked)
Marked response: > 10 µM

Exam item: # iterate: c1ccc2c(CC3CSC(Nc4ccc(CCNc5nc6ccccc6s5)cc4)=N3)cccc2c1 (centres unmarked)
Marked response: > 10 µM

Exam item: What do you get for c1ccc(CN2CCS/C2=N\c2ccc(CCNc3nc4ccccc4s3)cc2)cc1 ?
Marked response: > 10 µM
